Biological target: NLRP3 inflammasome (Homo sapiens, UniProt Q96P20)
Construct: Monocytes were then isolated from the PBMCs using a human pan-monocyte isolation kit; endogenous in cells; host or cells: primary human monocytes isolated from PBMCs of human blood
Sequence (Q96P20 whole entry): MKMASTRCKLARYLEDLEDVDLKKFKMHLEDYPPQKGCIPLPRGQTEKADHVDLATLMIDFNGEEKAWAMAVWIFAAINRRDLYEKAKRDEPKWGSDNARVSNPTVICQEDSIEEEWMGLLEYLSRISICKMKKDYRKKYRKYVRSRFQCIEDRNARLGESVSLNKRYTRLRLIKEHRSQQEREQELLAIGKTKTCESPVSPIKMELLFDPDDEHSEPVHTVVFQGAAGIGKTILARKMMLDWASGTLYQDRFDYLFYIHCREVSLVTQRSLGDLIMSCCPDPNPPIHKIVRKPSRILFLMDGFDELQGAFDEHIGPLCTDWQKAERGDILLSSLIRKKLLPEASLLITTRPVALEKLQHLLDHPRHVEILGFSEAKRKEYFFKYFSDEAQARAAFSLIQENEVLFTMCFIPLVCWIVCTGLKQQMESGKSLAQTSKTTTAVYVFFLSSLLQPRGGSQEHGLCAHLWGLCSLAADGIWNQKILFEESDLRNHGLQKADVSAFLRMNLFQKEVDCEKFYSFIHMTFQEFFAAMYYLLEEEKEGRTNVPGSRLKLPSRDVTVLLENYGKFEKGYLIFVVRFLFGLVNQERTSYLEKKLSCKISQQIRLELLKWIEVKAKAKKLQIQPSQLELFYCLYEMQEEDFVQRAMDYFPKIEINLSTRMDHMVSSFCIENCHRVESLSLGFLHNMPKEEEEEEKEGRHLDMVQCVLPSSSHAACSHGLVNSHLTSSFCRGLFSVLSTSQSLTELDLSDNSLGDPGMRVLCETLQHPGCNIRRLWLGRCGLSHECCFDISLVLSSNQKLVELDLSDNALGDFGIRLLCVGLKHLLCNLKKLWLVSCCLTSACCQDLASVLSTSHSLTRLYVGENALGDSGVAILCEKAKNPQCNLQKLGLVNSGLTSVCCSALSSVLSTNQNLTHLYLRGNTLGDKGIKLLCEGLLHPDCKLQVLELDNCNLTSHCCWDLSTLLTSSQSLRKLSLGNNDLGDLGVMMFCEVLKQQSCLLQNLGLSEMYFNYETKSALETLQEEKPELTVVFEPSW
Experiment: Inhibitory activity against NLRP3 inflammasome in human monocytes (IL-1b ELISA)
Format: cell-based
Details: human monocytes from PBMCs; compound 0.5 h, LPS 100 ng/mL 3.5 h, ATP 5 mM 45 min; IL-1b in supernatant by ELISA; (n = 2) cells are means of n tests; read-out: IL-1β inhibition (EC50)/nM
Procedure: Assays for Inhibitory Activity Against NLRP3 Inflammasome in Human Monocytes Day 1: PBMCs were separated from human blood by density gradient centrifugation and washed twice with PBS containing 2% FBS (centrifuged at 300 g for 8 min). […] The cells were counted, and the cell density was adjusted to 2.5×10^5 cells/mL. […] 3) A test dilution was added to the plate at ≥200 μL/well. […] If a wavelength correction was available, the absorbance at 570 nm would be subtracted from the absorbance at 450 nm.
METRIC_NAME: EC50 (nM)

# COMPOUND, EC50 (nM)
data = [
    ("C[C@]1(O)C[C@@H](Nc2nnc(-c3ccc4c(c3O)CCC4)c3cccnc23)C1", 3),
    ("OCCN1CCC[C@@H](Nc2nnc(-c3ccc(C(F)(F)F)cc3O)c3c2COC3)C1 (racemic)", 0.71),
    ("Cc1cc(N[C@@H]2CCCN(C)C2)nnc1-c1ccncc1O", 129),
    ("C[C@]1(O)C[C@@H](Nc2nnc(-c3ccc4c(c3O)CCC4)c3ccncc23)C1", 1),
    ("C[C@]1(O)C[C@@H](Nc2nnc(-c3c(O)cc(C(F)(F)F)cc3F)c3ccncc23)C1", 22),
    ("C[C@]1(O)C[C@@H](Nc2nnc(-c3ccc(C(F)(F)F)cc3O)c3c2CCOC3)C1", 20),
    ("OCCN1CCC[C@@H](Nc2nnc(-c3ccc(C(F)(F)F)cc3O)c3c2CCCC3)C1 (racemic)", 4.99),
]

P: CN1CCC[C@@H](Nc2nnc(-c3c(O)cccc3F)c3c2CCC3)C1 (racemic)
Q: Cc1c(N[C@H]2C[C@@](C)(O)C2)nnc(-c2ccc(C3CC3)cc2O)c1C
Between P and Q , whose recorded EC50 is greater? Answer with the label corresponding to your selection. Q
(Q: 37.2 nM, P: 1.23 nM)
